test system: Cochliobolus miyabeanus; assay: Activity against brown spot of rice caused by Cochliobolus miyabeanus, protective application; assay type: in vivo; conditions: individual active compound, 4 ppm in the spray liquor; rice seedlings Tai-Nong 67, protective spray, rated after six days
value kind: Efficacy in % of the untreated control (%)
Please state the figure in %; there is no need to write the unit.

| molecule | Efficacy in % of the untreated control (%) |
| --- | --- |
| O=[N+]([O-])c1cc(C(F)(F)F)c(Cl)c([N+](=O)[O-])c1Nc1ncc(C(F)(F)F)cc1Cl [compound II] | 5 |

[Q] # return recorded Efficacy in % of the untreated control for input CC1CCN(c2c(-c3c(F)cccc3Cl)c(Cl)nc3ncnn23)CC1 [A]
[A] 29

[Q] Name the recorded Efficacy in % of the untreated control of the molecule listed here: C[C@H](Nc1c(-c2c(F)cc(F)cc2F)c(Cl)nc2ncnn12)C(F)(F)F [B]
[A] 5

[Q] Kindly indicate its recorded Efficacy in % of the untreated control. Item: CC1CCN(c2c(-c3c(F)cc(F)cc3F)c(Cl)nc3ncnn23)CC1 [compound I]
[A] 5
